- Tested on: DU-145 prostate
- EXPERIMENT SUMMARY: NCI tumour cell line growth inhibition, 48 h; in the data active means GI50 below about 0.43 µM; inactive means the rest
Mark one answer only. Choices: y (active), n (inactive)

Here are 5 compounds together with their reported answers.
- SMILES INPUT: "COc1ccc2c(C(=O)NCCCCCC(=O)O)cc3cc4c(cc3c2c1)OCO4"
  ANSWER LABEL: "n"
- SMILES INPUT: "CO[C@]12C=C/C(=C(/C(=O)OCc3cccnc3)C(=O)CCCCCCCC[C@]3(OC)C=C/C(=C(/C(=O)OCc4cccnc4)C(=O)CCCCCCCC1)O3)O2"
  ANSWER LABEL: "y"
- SMILES INPUT: "COc1cc(-c2cc(C(=O)N3CCN(C(=O)c4ccccc4NCc4cccs4)CC3)nc3cc(-c4ccccc4)nn23)cc(OC)c1OC"
  ANSWER LABEL: "n"
- SMILES INPUT: "C=CCOc1ccc2c(c1)CC[C@@H]1[C@@H]2CC[C@]2(C)C(=O)/C(=N/O)C[C@@H]12"
  ANSWER LABEL: "n"
- SMILES INPUT: "CCCCCCOc1ccc(/C=N/Nc2cc(C)nc3ccc(Br)cc23)cc1"
  ANSWER LABEL: "n"

Request: How was CCCCCCCCCCCC(=O)[O][Sn]([CH2]CCC)([CH2]CCC)[CH2]CCC classified in this test?
Result: y

Request: How was COc1ccc(-n2cc(-c3ccc(F)cc3)[nH]c2=O)cc1OC classified in this test?
Result: n

Request: How was Nc1c(S(=O)(=O)O)cc2c(c1Cl)C(=O)c1ccccc1C2=O classified in this test?
Result: n
